Procedure Text: Inhibition of ADP-induced aggregation of human blood platelets in plasma
Type: functional
Run Conditions: Homo sapiens, Plasma
Recorded Endpoint: IC50 (µM)
Use µM as the unit, but write only the number.

Short answer for O=C(O)COc1cccc(CCn2cnc(-c3ccccc3)c2-c2ccccc2)c1 : IC50 was 5

Briefly, IC50 measured for O=C(O)CCCCCCCCn1nc(-c2ccccc2)c(-c2ccccc2)nc1=O : 4.9
